// data source = patent US8222247B2

Quick reference: Emax of the listed items.
tested on: AP-1 induced transcriptional activity; test: Cellular Transrepressional Assay (AP-1 luciferase reporter in A549 cell, PMA activated); format: cell-based; conditions: Homo sapiens, A549, 7 h, maximum inhibition, pAP-1-Luc, PMA, read-out: AP-1 Max % inh (Cellular Transrepression Assay)
Hi, when you answer, please include the unit after the number. Thanks!

# COMPOUND, ENDPOINT RESULT
data = [
    ("CC(C)(C(=O)Nc1nncs1)C(c1cccc(F)c1)c1ccc(-c2ccc(C(=O)N3CCCC3)cc2)s1 (stereo not drawn) [Example 41]", "65.5%"),
    ("CC(C)(C(=O)Nc1nccs1)C(c1ccccc1)c1ccc(N2CCOCC2)nc1 (stereo not drawn) [Example 14]", "46%"),
    ("CCN(C)C(=O)c1ccc(-c2ccc([C@@H](c3cccc(F)c3)[C@@H](C)C(=O)Nc3nncs3)s2)cc1Cl [Example 119]", "47.6%"),
]

Task item: Reported Emax for CC(C(=O)Nc1nncs1)C(c1cccc(F)c1)c1ccc(-c2ccc(C(=O)N3CCOCC3)cc2)s1 (single isomer, unassigned) [Example 100] : what is it?
Reply: 50.6%

Task item: Reported Emax for C[C@@H](C(=O)Nc1nncs1)[C@H](c1cccc(F)c1)c1ccc(-c2ccc(C(=O)N(C)C)cc2)s1 [Example 117] : what is it?
Reply: 56.5%

Task item: Reported Emax for CC(C)(C(=O)Nc1nccs1)C(c1cccc(F)c1)c1ccc(N2CCOCC2)s1 (stereo not drawn) [Example 10] : what is it?
Reply: 40%

Task item: Reported Emax for CCN(C)C(=O)c1ccc(-c2ccc([C@@H](c3cccc(F)c3)[C@@H](C)C(=O)Nc3nccs3)s2)cc1 [Example 143] : what is it?
Reply: 63.6%

Task item: Reported Emax for CC(C)(C(=O)Nc1nncs1)C(c1cc(F)cc(F)c1)c1ccc(-c2ccc(C(=O)N3CCOCC3)cc2)s1 (stereo not drawn) [Example 89] : what is it?
Reply: 36.7%

Task item: Reported Emax for CN(C)C(=O)c1ccc(-c2ccc(C(c3ccccc3)C(C)(C)C(=O)Nc3nncs3)s2)cc1 (stereo not drawn) [Example 87] : what is it?
Reply: 41.1%

Task item: Reported Emax for CC(C)Oc1ccc(-c2ccc(C(c3ccccc3)C(C)(C)C(=O)Nc3nncs3)cn2)cc1 (stereo not drawn) [Example 33] : what is it?
Reply: 37.7%

---

Quick reference: Emax of the listed items.
System: AP-1 induced transcriptional activity
Experiment: Cellular Transrepressional Assay (AP-1 luciferase reporter in A549 cell, PMA activated)
Format: cell-based
Details: Homo sapiens, A549, 7 h, maximum inhibition, pAP-1-Luc, PMA, read-out: AP-1 Max % inh (Cellular Transrepression Assay)
Description: Cellular Transrepressional Assay To measure the ability of test molecules to inhibit AP-1 induced transcriptional activity we utilized an A549 cell which was stably transfected with a plasmid containing 7×AP-1 DNA binding sites (pAP-1-Luc plasmid, Stratagene Co. La Jolla, Calif.) followed by the gene for luciferase. […] After a 10 minute incubation of luciferase reagent with cells, luminescence was measured in a TopCount luminescence counter. […]
Return type: number; implicit unit %.

Before answering, review these 3 worked examples.
# COMPOUND, MEASUREMENT NAME, ENDPOINT RESULT
rows = [
    ("CC(C)(C(=O)Nc1nncs1)[C@@H](c1cccc(F)c1)c1ccc(-c2ccc(C(=O)N3CCC(F)(F)C3)cc2)s1", "Emax", 42.6),
    ("CN(C)C(=O)c1ccc(-c2ccc(C(c3cccc(F)c3)C(C)(C)C(=O)Nc3nccs3)s2)cc1 (centres unmarked)", "Emax", 42.9),
    ("CC(C(=O)Nc1nncs1)C(c1cccc(F)c1)c1ccc(-c2ccc(C(=O)N(C)C)cc2)s1 (single isomer, unassigned)", "Emax", 52.6),
]

Task item: Reported Emax for CN(C)C(=O)c1ccc(-c2ccc(C(c3ccccc3)C(C)(C)C(=O)Nc3nncs3)s2)cc1Cl (centres unmarked) : what is it?
Reply: 38.4

Task item: Reported Emax for C[C@@H](C(=O)Nc1nncs1)[C@H](c1cccc(F)c1)c1ccc(-c2ccc(C(=O)N3CCOCC3)cc2)s1 : what is it?
Reply: 57.5

Task item: Reported Emax for CC(C)Cc1ccc(-c2ccc([C@@H](c3cccc(F)c3)[C@@H](C)C(=O)Nc3nncs3)s2)cc1 : what is it?
Reply: 36.6

Task item: Reported Emax for C[C@@H](C(=O)Nc1nncs1)[C@H](c1cccc(F)c1)c1ccc(-c2ccc(C(=O)N(C)C)c(F)c2)s1 : what is it?
Reply: 54

Task item: Reported Emax for CC(C)(C(=O)Nc1nncs1)[C@@H](c1cccc(F)c1)c1ccc(-c2ccc(C(=O)N3CCOCC3)c(F)c2)s1 : what is it?
Reply: 32.7
